Procedure text: cell-permeable autofluorescent compounds in GFP channel, dose response, artefact control, imaging, high-content imaging (AID 2124);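 note: cells exposed to compound for 48 hours before fixing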
Settings: cells, GFP-channel autofluorescence, high-content imaging; cell count; at 10 µM
Results filed as inconclusive are left out.
Endpoint label: cell count (cells)
Express it in cells; write the number only.

Here are 3 molecules together with their reported answers.
O=S(=O)(Cc1ccc(Cl)cc1)c1ccccc1-c1nnc(-c2ccccc2)o1 = 3320
CCCN1C(=O)/C(=C\C=C2\N(CC)c3ccccc3C2(C)C)SC1=S = 2900
CCCCN1C(=O)/C(=C/C=C2\SCCN2C)SC1=S = 2930

Q: Any idea what cell count was measured for Cc1cc(NC(=S)N(Cc2ccc(Br)cc2)Cc2ccc(C(=O)O)cc2)ccc1Cl ?
Ans: 2830

Q: Any idea what cell count was measured for Cc1ccc(Nc2nc3c([nH]2)c(=O)n(C)c(=O)n3C)cc1 ?
Ans: 2720

Q: Any idea what cell count was measured for O=C(N=C1SCC(=O)N1c1ccccc1Cl)c1ccccc1 ?
Ans: 3110

Q: Any idea what cell count was measured for N#CC(C#N)=C1C=C2C=C(N3CCCCC3)CCC2CC1 (stereo unspecified) ?
Ans: 3020

Q: Any idea what cell count was measured for COc1ccc(-c2ccc3c(N)c(C(=O)c4cccc(OC)c4)sc3n2)cc1 ?
Ans: 2850

Q: Any idea what cell count was measured for Cc1ccc(NS(=O)(=O)c2cc([N+](=O)[O-])ccc2N/N=C/c2sc(N3CCOCC3)nc2-c2ccccc2)c(C)c1 ?
Ans: 2790

Q: Any idea what cell count was measured for Cc1csc(NC(=O)c2sc3nc(-c4cccs4)ccc3c2N)n1 ?
Ans: 2840

Numbers sourced from PubChem BioAssay AID2124.
